EXPERIMENTAL_SYSTEM: HLA-A*24:03
METHOD_DESCRIPTION: IEDB peptide-MHC binding, purified MHC/direct/fluorescence; filed as Kd, often an IC50 or EC50 that approximates it; bounds were set here for any values at or beyond the usual limits of such assays
CONDITION_DETAILS: source organism: Camelpox virus M-96
READOUT_NAME: pKd
Hey, just a heads up that pKd is the negative log base 10 of the concentration in molar.

Write down pKd measured for item `FYLFTFTIY`
5.90

###

EXPERIMENTAL_SYSTEM: HLA-B*15:01
METHOD_DESCRIPTION: IEDB peptide-MHC binding, purified MHC/competitive/fluorescence; filed as Kd, often an IC50 or EC50 that approximates it; bounds were set here for any values at or beyond the usual limits of such assays
CONDITION_DETAILS: source organism: Yersinia pseudotuberculosis IP 31758
READOUT_NAME: pKd
In plain terms, pKd is the concentration in mol/L turned into minus its base-10 logarithm.

Give recorded pKd. `RQIRMTSTI`
6.79

###

EXPERIMENTAL_SYSTEM: HLA-B*46:01
METHOD_DESCRIPTION: IEDB peptide-MHC binding, purified MHC/competitive/fluorescence; filed as Kd, often an IC50 or EC50 that approximates it; bounds were set here for any values at or beyond the usual limits of such assays
CONDITION_DETAILS: source organism: Orthohantavirus tulaense
pKd: −log10 of the molar value.
READOUT_NAME: pKd

State the measured pKd (HLA-B*46:01) of `AESICSYWL`
≤ 4.70

###

EXPERIMENTAL_SYSTEM: HLA-A*24:02
METHOD_DESCRIPTION: IEDB peptide-MHC binding, purified MHC/competitive/radioactivity; filed as Kd, often an IC50 or EC50 that approximates it; bounds were set here for any values at or beyond the usual limits of such assays
CONDITION_DETAILS: source organism: Mammarenavirus brazilense
READOUT_NAME: pKd
Field pKd (float): negative decimal logarithm of the concentration in molar.

Please list pKd recorded for the sequence `RLKGVTCRLF`
6.14

###

EXPERIMENTAL_SYSTEM: HLA-A*33:01
METHOD_DESCRIPTION: IEDB peptide-MHC binding, purified MHC/competitive/radioactivity; filed as Kd, often an IC50 or EC50 that approximates it; bounds were set here for any values at or beyond the usual limits of such assays
CONDITION_DETAILS: source organism: Vaccinia virus WR
Below, each entry is listed with its recorded pKd.
Field pKd (float): negative decimal logarithm of the concentration in molar.

Please review the entries below; each comes with its answer.
Fill in pKd for record `MLYQLLEAVY`
4.80

Return value of pKd for input `TLYVKALTK` , no commentary.
4.81

Consider the sequence `TQIFEVYWY` . State its measured pKd.
4.96

Tell me measured pKd for `VSMTYLYNK` please.
6.09

Answer with reported pKd of `FVSLVKKNKK`
5.03

More entries:
State its pKd: `FLLRHYYNK`
5.69

Input `ASMGFKVTTR` , output reported pKd.
6.27

Tell me pKd reported for `DVSMMSMYGK`
6.23

Note down pKd recorded for `YANCSSISIK`
4.74

Please report the measured pKd for `EANASAQTK`
4.90

Give the reported value of pKd for this record: `LIKFISDNK`
6.20

###

EXPERIMENTAL_SYSTEM: HLA-B*27:03
METHOD_DESCRIPTION: IEDB peptide-MHC binding, purified MHC/competitive/fluorescence; filed as Kd, often an IC50 or EC50 that approximates it; bounds were set here for any values at or beyond the usual limits of such assays
CONDITION_DETAILS: source organism: Yersinia mollaretii ATCC 43969
READOUT_NAME: Kd

Quick one: give measured Kd for `DEQEFFYSQ`
≥ 20 µM

###

EXPERIMENTAL_SYSTEM: HLA-A*31:01
METHOD_DESCRIPTION: IEDB peptide-MHC binding, purified MHC/direct/fluorescence; filed as Kd, often an IC50 or EC50 that approximates it; bounds were set here for any values at or beyond the usual limits of such assays
CONDITION_DETAILS: source organism: Ebola virus - Gabon (1994-1997)
pKd: −log10 of the molar value.
READOUT_NAME: pKd

Output measured pKd for this item: `QLSLKMLSL`
≤ 4.70

###

EXPERIMENTAL_SYSTEM: HLA-C*15:02
METHOD_DESCRIPTION: IEDB peptide-MHC binding, purified MHC/direct/fluorescence; filed as Kd, often an IC50 or EC50 that approximates it; bounds were set here for any values at or beyond the usual limits of such assays
CONDITION_DETAILS: source organism: Salmonella enterica subsp. enterica serovar Typhi str. CT18
READOUT_NAME: Kd

Supply reported Kd belonging to this sequence: `TTHHTIPLL`
≥ 20 µM

###

EXPERIMENTAL_SYSTEM: HLA-B*58:01
METHOD_DESCRIPTION: IEDB peptide-MHC binding, purified MHC/direct/fluorescence; filed as Kd, often an IC50 or EC50 that approximates it; bounds were set here for any values at or beyond the usual limits of such assays
CONDITION_DETAILS: source organism: Mammarenavirus lassaense
READOUT_NAME: Kd

Tell me its Kd given `QLDQRRALL` as the entry.
≥ 20 µM

###

EXPERIMENTAL_SYSTEM: HLA-B*15:01
METHOD_DESCRIPTION: IEDB peptide-MHC binding, purified MHC/direct/fluorescence; filed as Kd, often an IC50 or EC50 that approximates it; bounds were set here for any values at or beyond the usual limits of such assays
CONDITION_DETAILS: source organism: Mycobacterium tuberculosis
pKd: −log10 of the molar value.
Entries annotated with measured pKd

Answer with the recorded pKd of `RSFRIHILF` only.
≤ 5.00

Here is the next item to consider.
Kindly indicate its recorded pKd. Item: `RPRLWRSVI`
≤ 4.70

###

EXPERIMENTAL_SYSTEM: HLA-B*58:01
METHOD_DESCRIPTION: IEDB peptide-MHC binding, purified MHC/direct/fluorescence; filed as Kd, often an IC50 or EC50 that approximates it; bounds were set here for any values at or beyond the usual limits of such assays
CONDITION_DETAILS: source organism: Vibrio vulnificus
READOUT_NAME: Kd

Hello, please tell me recorded Kd for this one: `QKDINTPGY`
≥ 20 µM

###

EXPERIMENTAL_SYSTEM: HLA-B*48:01
METHOD_DESCRIPTION: IEDB peptide-MHC binding, purified MHC/competitive/fluorescence; filed as Kd, often an IC50 or EC50 that approximates it; bounds were set here for any values at or beyond the usual limits of such assays
CONDITION_DETAILS: source organism: Vaccinia virus L-IPV
READOUT_NAME: Kd

Give reported Kd value for `SHEQGDIAL`
≥ 20 µM

###

EXPERIMENTAL_SYSTEM: HLA-A*32:07
METHOD_DESCRIPTION: IEDB peptide-MHC binding, purified MHC/competitive/fluorescence; filed as Kd, often an IC50 or EC50 that approximates it; bounds were set here for any values at or beyond the usual limits of such assays
CONDITION_DETAILS: source organism: Kurkino virus
READOUT_NAME: pKd
Here pKd is given on a logarithmic scale as minus log10 of the concentration in mol/L.

# return pKd for `SLYSGFPSL` , test system: HLA-A*32:07
8.60

###

EXPERIMENTAL_SYSTEM: HLA-B*51:01
METHOD_DESCRIPTION: IEDB peptide-MHC binding, purified MHC/competitive/fluorescence; filed as Kd, often an IC50 or EC50 that approximates it; bounds were set here for any values at or beyond the usual limits of such assays
CONDITION_DETAILS: source organism: Escherichia coli str. K-12 substr. W3110
READOUT_NAME: Kd

Look up HLA-B*51:01 data: Kd of `IQFDWYPTS` , then report it.
≥ 20 µM

###

EXPERIMENTAL_SYSTEM: HLA-A*02:01
METHOD_DESCRIPTION: IEDB peptide-MHC binding, purified MHC/competitive/fluorescence; filed as Kd, often an IC50 or EC50 that approximates it; bounds were set here for any values at or beyond the usual limits of such assays
CONDITION_DETAILS: source organism: Reston ebolavirus
READOUT_NAME: Kd

Quote Kd with test system HLA-A*02:01 for `QAFEAGIDF`
≥ 20 µM

###

This listing pairs sequences with measured log10 of Kd.
EXPERIMENTAL_SYSTEM: HLA-B*40:02
METHOD_DESCRIPTION: IEDB peptide-MHC binding, purified MHC/competitive/radioactivity; filed as Kd, often an IC50 or EC50 that approximates it; bounds were set here for any values at or beyond the usual limits of such assays
CONDITION_DETAILS: source organism: SARS coronavirus Tor2
In our notation, the value equals log10 of Kd in nM.

# return recorded log10 of Kd for input `GEENFSSRMY`
4.15

Tell us which log10 of Kd value is on record for `FEYISDAFSL`
2.92

State its log10 of Kd: `LEGSVRVVT`
1.84
